Experiment: logP by HPLC on reversed-phase column (C 18), EEC Directive 79/831 Annex V.A8, Method A (0.1% aqueous phosphoric acid / acetonitrile, 43°C)
Type: physicochemical
Conditions: c18 reversed-phase hplc; LogP method A: HPLC reversed-phase C 18, 43°C, 0.1% aqueous phosphoric acid / acetonitrile
Result type: chromatographic logP

Cc1n[nH]c(C)c1C(=O)N(C1CC1)S(=O)(=O)c1ccc(C(F)(F)F)cc1 ... 2.58

a. Cc1nn(C)c(Cl)c1C(=O)N(C1CC1)S(=O)(=O)c1ccc(Cl)c(C(F)(F)F)c1
b. Cc1c(C(=O)N(C2CC2)S(=O)(=O)c2ccc(Cl)c(Cl)c2)sc(=O)n1C
Task: Endpoint returns whichever of a and b has the numerically higher chromatographic logP. # answer = label of selected item
Output: a
(a: 3.76, b: 2.01)

###

Assay: logP by HPLC on reversed-phase column (C 18), EEC Directive 79/831 Annex V.A8, Method A (0.1% aqueous phosphoric acid / acetonitrile, 43°C)
Type: physicochemical
Details: c18 reversed-phase hplc; LogP method A: HPLC reversed-phase C 18, 43°C, 0.1% aqueous phosphoric acid / acetonitrile
Result type: chromatographic logP

O=C(c1cccnc1Cl)N(C1CC1)S(=O)(=O)c1ccccc1Cl ... 2.58

I. CCOC(=O)c1[nH]c(C)c(C(=O)N(C2CC2)S(=O)(=O)c2cccc(Cl)c2)c1C
II. COCCn1c(C)c(C(=O)N(C2CC2)S(=O)(=O)c2ccc(Cl)c(C(F)(F)F)c2)sc1=O
Task: Kindly identify which of I and II has the larger recorded chromatographic logP value. Please indicate the selected item by its label.
Output: I

###

Experiment: logP by HPLC on reversed-phase column (C 18), EEC Directive 79/831 Annex V.A8, Method B (0.1% aqueous formic acid / acetonitrile, 40°C)
Format: physicochemical
Conditions: c18 reversed-phase hplc; LogP method B: HPLC reversed-phase C 18, 40°C, 0.1% aqueous formic acid / acetonitrile
Result type: chromatographic logP

CCOc1nn(C)cc1C(=O)N(C1CC1)S(=O)(=O)c1ccc(Oc2cccc(Br)c2)c(Cl)c1 ... 4.5
COc1nn(C)cc1C(=O)N(C1CC1)S(=O)(=O)c1ccc(Oc2cc(Cl)cc(Cl)c2)cc1Br ... 4.3
CCOc1nn(C)cc1C(=O)N(C1CC1)S(=O)(=O)c1ccc(Oc2ccc(Cl)cc2)c(Cl)c1 ... 4.3
Cn1nc(C(F)F)c(C(=O)N(C2CC2)S(=O)(=O)c2cccc(Cl)c2Cl)c1F ... 3.2
COc1nn(C)c(Cl)c1C(=O)N(C1CC1)S(=O)(=O)c1cccc(Cl)c1Cl ... 3.2
CCOc1nn(C)cc1C(=O)N(C1CC1)S(=O)(=O)c1ccc(Oc2cccc(C(F)(F)F)c2)c(Cl)c1 ... 4.4
CCOc1nn(C)cc1C(=O)N(C1CC1)S(=O)(=O)c1ccc(Oc2cccc(Br)c2)cc1Cl ... 3.9

###

Assay: logP by HPLC on reversed-phase column (C 18), EEC Directive 79/831 Annex V.A8, Method A (0.1% aqueous phosphoric acid / acetonitrile, 43°C)
Assay type: physicochemical
Details: c18 reversed-phase hplc; LogP method A: HPLC reversed-phase C 18, 43°C, 0.1% aqueous phosphoric acid / acetonitrile
Result type: chromatographic logP

Cc1nn(C)c(F)c1C(=O)N(C1CC1)S(=O)(=O)c1ccc(C(F)(F)F)cc1Cl [compound 213] ... 3.19
CC1=C(C(=O)N(C2CC2)S(=O)(=O)c2ccccc2Cl)OCCS1 [compound 652] ... 2.78
Cc1ncc(C(=O)N(C2CC2)S(=O)(=O)c2ccc(Cl)cc2Cl)s1 [compound 64] ... 2.91

a. Cc1nn(C)c(C)c1C(=O)N(C1CC1)S(=O)(=O)c1ccc(Cl)c(C(F)(F)F)c1 [compound 411]
b. COc1nn(C)cc1C(=O)N(C1CC1)S(=O)(=O)c1ccccc1Cl [compound 211]
Task: Response body: label of entry with the larger chromatographic logP; valid values a , b . Give the label of your selection.
Output: a

###

Experiment: logP by HPLC on reversed-phase column (C 18), EEC Directive 79/831 Annex V.A8, Method B (0.1% aqueous formic acid / acetonitrile, 40°C)
Format: physicochemical
Conditions: c18 reversed-phase hplc; LogP method B: HPLC reversed-phase C 18, 40°C, 0.1% aqueous formic acid / acetonitrile
Result type: chromatographic logP

Cc1cc(Cl)cc(Cl)c1S(=O)(=O)N(C(=O)c1c(C(F)(F)F)nn(C)c1F)C1CC1 ... 2.6
CCc1nn(C)c(F)c1C(=O)N(C1CC1)S(=O)(=O)c1c(Cl)sc(Cl)c1Br ... 3.8
O=C(c1cccnc1Cl)N(C1CC1)S(=O)(=O)c1cccc(Cl)c1Cl ... 3.2
CCOc1nn(C)cc1C(=O)N(C1CC1)S(=O)(=O)c1ccc(Oc2ccc(C(F)(F)F)cc2)cc1Cl ... 4.1

1. Cc1cc(C(=O)N(C2CC2)S(=O)(=O)c2ccc(Cl)c(Cl)c2Cl)c(C)o1
2. Cc1nocc1C(=O)N(C1CC1)S(=O)(=O)c1cccc(Cl)c1Cl
3. COc1nn(C)cc1C(=O)N(C1CC1)S(=O)(=O)c1c(C)nn(C)c1Cl
Task: Sort the 3 compounds by chromatographic logP; largest first, smallest last. Sort the labels as requested; that list is your answer.
Output: 1, 2, 3

###

Assay: logP by HPLC on reversed-phase column (C 18), EEC Directive 79/831 Annex V.A8, Method A (0.1% aqueous phosphoric acid / acetonitrile, 43°C)
Format: physicochemical
Details: c18 reversed-phase hplc; LogP method A: HPLC reversed-phase C 18, 43°C, 0.1% aqueous phosphoric acid / acetonitrile
Result type: chromatographic logP

Solved entries (count: 5):
Cc1nc(C(F)(F)F)c(C(=O)N(C2CC2)S(=O)(=O)c2ccccc2Cl)s1 ... 3.2
Cc1ncc(C(=O)N(C2CC2)S(=O)(=O)c2ccc(Cl)c(C(F)(F)F)c2)s1 ... 3.46
CCOC(=O)c1[nH]c(C)c(C(=O)N(C2CC2)S(=O)(=O)c2ccc(Cl)cc2Cl)c1C ... 3.63
Cc1nc(C(=O)N(C2CC2)S(=O)(=O)c2ccc(Cl)c(C(F)(F)F)c2)cs1 ... 3.63
CC(C)c1c(C(=O)N(C2CC2)S(=O)(=O)c2cccc(Cl)c2)sc(=O)n1C1CC1 ... 2.01

a. Cc1c(C(=O)N(C2CC2)S(=O)(=O)c2ccc(Cl)cc2Cl)sc(=O)n1Cc1ccccc1
b. O=C(c1cccnc1)N(C1CC1)S(=O)(=O)c1cccc(Cl)c1
Task: Which numeric chromatographic logP is bigger, that of a or that of b ? State the label of the item chosen.
Output: a
(a: 4.03, b: 2.3)

A. Cc1nn(C)c(Oc2cccc(Cl)c2)c1C(=O)N(C1CC1)S(=O)(=O)c1cccc(Cl)c1
B. Cn1cc(C(=O)N(C2CC2)S(=O)(=O)c2ccccc2Cl)c(C(F)(F)F)n1
Task: Lab log: flag the item ( A or B ) with the smaller chromatographic logP figure. Write the label of whichever entry you select.
Output: B

###

Assay: logP by HPLC on reversed-phase column (C 18), EEC Directive 79/831 Annex V.A8, Method A (0.1% aqueous phosphoric acid / acetonitrile, 43°C)
Type: physicochemical
Conditions: c18 reversed-phase hplc; LogP method A: HPLC reversed-phase C 18, 43°C, 0.1% aqueous phosphoric acid / acetonitrile
Experimental: Calibration was carried out using unbranched alkan-2-ones (having 3 to 16 carbon atoms) with known logP values (determination of the logP values by the retention times using linear interpolation between two successive alkanones).
Result type: chromatographic logP

CC(C)c1c(C(=O)N(C2CC2)S(=O)(=O)c2ccc(Cl)c(C(F)(F)F)c2)sc(=O)n1C1CC1 [compound 633] ... 3.01
Cc1c(C(=O)N(C2CC2)S(=O)(=O)c2ccc(Cl)c(Cl)c2)sc(=O)n1Cc1ccccc1 [compound 626] ... 3.01
Cc1n[nH]c(C)c1C(=O)N(C1CC1)S(=O)(=O)c1ccc(Cl)c(C(F)(F)F)c1 [compound 408] ... 3

###

Assay: logP by HPLC on reversed-phase column (C 18), EEC Directive 79/831 Annex V.A8, Method A (0.1% aqueous phosphoric acid / acetonitrile, 43°C)
Type: physicochemical
Conditions: c18 reversed-phase hplc; LogP method A: HPLC reversed-phase C 18, 43°C, 0.1% aqueous phosphoric acid / acetonitrile
Result type: chromatographic logP

1. Cc1cc(C)c(C(=O)N(C2CC2)S(=O)(=O)c2ccc(Cl)c(Cl)c2Cl)c(Cl)n1 [compound 651]
2. Cc1nn(C)c(C)c1C(=O)N(C1CC1)S(=O)(=O)c1ccccc1Cl [compound 215]
Task: Looking only at measured chromatographic logP, which entry is lower, 1 or 2 ? Response format: the label of the selected entry.
Output: 2
(2: 2.17, 1: 4.16)

###

Assay: logP by HPLC on reversed-phase column (C 18), EEC Directive 79/831 Annex V.A8, Method A (0.1% aqueous phosphoric acid / acetonitrile, 43°C)
Type: physicochemical
Conditions: c18 reversed-phase hplc; LogP method A: HPLC reversed-phase C 18, 43°C, 0.1% aqueous phosphoric acid / acetonitrile
Result type: chromatographic logP

Worked cases, answers included:
O=C(C1=C(C(F)(F)F)OCCS1)N(C1CC1)S(=O)(=O)c1ccccc1Cl ... 3.2
CC(C)c1c(C(=O)N(C2CC2)S(=O)(=O)c2ccc(Cl)c(Cl)c2)sc(=O)n1C1CC1 ... 3.01
Cc1n[nH]c(C)c1C(=O)N(C1CC1)S(=O)(=O)c1ccc(Cl)c(Cl)c1 ... 2.74

I. CCc1onc(C(C)C)c1C(=O)N(C1CC1)S(=O)(=O)c1ccc(Cl)c(Cl)c1
II. Cc1ccsc1C(=O)N(C1CC1)S(=O)(=O)c1ccccc1Cl
Task: Which item exceeds the other in chromatographic logP, I or II ? Your answer should be the label of the entry you select.
Output: I
